// provenance: ChEMBL document CHEMBL4376885

procedure-text: Tmax in Kunming mouse at 10 mg/kg, po by LC-MS/MS analysis
Format: ADME, organism-based
run-conditions: in vivo
metric: Tmax
Answer by giving the amount and then stating its unit.

Value of measured Tmax for the entry "Cc1cc(/C=C/C#N)cc(C)c1Oc1nc(Nc2ccc(C#N)c(F)c2)nc2ccsc12" : 1 h

###

procedure-text: Tmax in Wistar rat at 2 mg/kg, iv by LC-MS/MS analysis
Assay type: ADME, organism-based
run-conditions: in vivo
metric: Tmax (min)
State the answer as a number, implicitly in min.

Looking up "Cc1cc(/C=C/C#N)cc(C)c1Oc1nc(Nc2ccc(C#N)c(F)c2)nc2ccsc12" , I see its Tmax listed as 1.98

###

assay-system: Cytochrome P450 2D6 (Homo sapiens, UniProt P10635)
Sequence (P10635 whole entry): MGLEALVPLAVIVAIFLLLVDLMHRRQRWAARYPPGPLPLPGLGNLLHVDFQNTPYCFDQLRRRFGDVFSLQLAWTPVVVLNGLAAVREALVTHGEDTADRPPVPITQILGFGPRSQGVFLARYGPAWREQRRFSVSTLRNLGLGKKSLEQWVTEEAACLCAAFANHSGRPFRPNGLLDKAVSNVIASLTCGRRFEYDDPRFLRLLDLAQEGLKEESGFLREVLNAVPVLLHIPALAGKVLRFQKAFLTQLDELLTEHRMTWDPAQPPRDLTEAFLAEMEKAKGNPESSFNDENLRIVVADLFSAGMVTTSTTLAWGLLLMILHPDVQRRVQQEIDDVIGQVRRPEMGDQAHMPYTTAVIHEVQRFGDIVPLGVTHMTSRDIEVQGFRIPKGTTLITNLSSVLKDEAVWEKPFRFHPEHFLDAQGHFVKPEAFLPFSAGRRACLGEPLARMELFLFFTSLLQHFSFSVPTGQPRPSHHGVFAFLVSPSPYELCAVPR
metric: IC50

Consider "Cc1cc(/C=C/C#N)cc(C)c1Oc1nc(Nc2ccc(C#N)c(F)c2)nc2ccsc12" . Its measured IC50 is > 50 µM

###

procedure-text: Tmax in Kunming mouse at 2 mg/kg, iv by LC-MS/MS analysis
Assay type: ADME, organism-based
run-conditions: in vivo
metric: Tmax (min)
Entry rule: numbers only, all in min.

Per the record, "Cc1cc(/C=C/C#N)cc(C)c1Oc1nc(Nc2ccc(C#N)c(F)c2)nc2ccsc12" has Tmax of 1.98

###

Test system: Human immunodeficiency virus 1
procedure-text: Antiviral activity against HIV1 3B infected in human MT4 cells assessed as protection against virus-induced cytopathic effect incubated for 5 days by MTT assay
Assay type: functional, organism-based
run-conditions: Human immunodeficiency virus 1, 3B, MT4, 120 h
metric: pEC50
Quick note: pEC50 values are minus log10 of concentrations in mol/L.

Item: "Cc1cc(C#N)cc(C)c1Oc1nc(Nc2ccc(C#N)c(F)c2F)nc2ccsc12" | pEC50: 6.65

"Cc1cc(C#N)cc(C)c1Oc1nc(Nc2ccc(C#N)c(F)c2)nc2c1COC2" has a reported pEC50 of 8.52

###

System: Human immunodeficiency virus 1
procedure-text: Antiviral activity against HIV1 3B infected in human MT4 cells assessed as protection against virus-induced cytopathic effect incubated for 5 days by MTT assay
Assay type: functional, organism-based
run-conditions: Human immunodeficiency virus 1, 3B, MT4, 120 h
metric: pEC50
Convention used: pEC50 is expressed as -log10 of the molar concentration.

Reading of pEC50 for "Cc1cc(/C=C/C#N)cc(C)c1Oc1nc(Nc2ccc(C#N)c(F)c2)nc2sccc12" with Human immunodeficiency virus 1: 8.12

###

Tested on: Human immunodeficiency virus 1
procedure-text: Antiviral activity against HIV1 3B infected in human MT4 cells assessed as protection against virus-induced cytopathic effect incubated for 5 days by MTT assay
Format: functional, organism-based
run-conditions: Human immunodeficiency virus 1, 3B, MT4, 120 h
metric: EC50 (nM)
Unit nM implied. Number only.

Notebook: "Cc1cc(C#N)cc(C)c1Oc1nc(Nc2ccc(C#N)c(F)c2)nc2ccsc12" , EC50 read as 6.74

Documented EC50 of "Cc1cc(C#N)cc(C)c1Oc1nc(Nc2ccc(C#N)c(F)c2)nc2c1CCCC2" : 11.3

Entry "Cc1cc(/C=C/C#N)cc(C)c1Oc1nc(Nc2ccc(C#N)c(F)c2F)nc2sccc12" — recorded EC50 = 18.6

###

Catalogue of pEC50 readings, one per entry.
System: Human immunodeficiency virus 1
procedure-text: Antiviral activity against HIV1 3B infected in human MT4 cells assessed as protection against virus-induced cytopathic effect incubated for 5 days by MTT assay
Type: functional, organism-based
run-conditions: Human immunodeficiency virus 1, 3B, MT4, 120 h
The read-out pEC50 is expressed as -log10 of concentration in moles per litre.

1) Cc1cc(C#N)cc(C)c1Oc1nc(Nc2ccc(C#N)c(F)c2)nc2c1CCC2 = 7.42
2) Cc1cc(C#N)cc(C)c1Oc1nc(Nc2ccc(C#N)c(F)c2F)nc2sccc12 = 7.39
3) Cc1cc(/C=C/C#N)cc(C)c1Oc1nc(Nc2ccc(C#N)cc2F)nc2sccc12 = 8.15
4) Cc1cc(C#N)cc(C)c1Oc1nc(Nc2ccc(C#N)cc2F)nc2sccc12 = 7.62
5) Cc1cc(C#N)cc(C)c1Oc1nc(Nc2ccc(C#N)cc2C(F)(F)F)nc2sccc12 = 5.89

I looked up "Cc1cc(/C=C/C#N)cc(C)c1Oc1nc(Nc2ccc(C#N)cc2F)nc2ccsc12" and its pEC50 for Human immunodeficiency virus 1 was 8.20

// assay Human immunodeficiency virus 1, entry "Cc1cc(/C=C/C#N)cc(C)c1Oc1nc(Nc2ccc(C#N)c(F)c2)nc2ccsc12" , pEC50 value = 8.07
